Target: ErbB4 on neonatal rat cardiomyocytes (rat) (UniProt Q62956)
Sequence (Q62956 26-1308): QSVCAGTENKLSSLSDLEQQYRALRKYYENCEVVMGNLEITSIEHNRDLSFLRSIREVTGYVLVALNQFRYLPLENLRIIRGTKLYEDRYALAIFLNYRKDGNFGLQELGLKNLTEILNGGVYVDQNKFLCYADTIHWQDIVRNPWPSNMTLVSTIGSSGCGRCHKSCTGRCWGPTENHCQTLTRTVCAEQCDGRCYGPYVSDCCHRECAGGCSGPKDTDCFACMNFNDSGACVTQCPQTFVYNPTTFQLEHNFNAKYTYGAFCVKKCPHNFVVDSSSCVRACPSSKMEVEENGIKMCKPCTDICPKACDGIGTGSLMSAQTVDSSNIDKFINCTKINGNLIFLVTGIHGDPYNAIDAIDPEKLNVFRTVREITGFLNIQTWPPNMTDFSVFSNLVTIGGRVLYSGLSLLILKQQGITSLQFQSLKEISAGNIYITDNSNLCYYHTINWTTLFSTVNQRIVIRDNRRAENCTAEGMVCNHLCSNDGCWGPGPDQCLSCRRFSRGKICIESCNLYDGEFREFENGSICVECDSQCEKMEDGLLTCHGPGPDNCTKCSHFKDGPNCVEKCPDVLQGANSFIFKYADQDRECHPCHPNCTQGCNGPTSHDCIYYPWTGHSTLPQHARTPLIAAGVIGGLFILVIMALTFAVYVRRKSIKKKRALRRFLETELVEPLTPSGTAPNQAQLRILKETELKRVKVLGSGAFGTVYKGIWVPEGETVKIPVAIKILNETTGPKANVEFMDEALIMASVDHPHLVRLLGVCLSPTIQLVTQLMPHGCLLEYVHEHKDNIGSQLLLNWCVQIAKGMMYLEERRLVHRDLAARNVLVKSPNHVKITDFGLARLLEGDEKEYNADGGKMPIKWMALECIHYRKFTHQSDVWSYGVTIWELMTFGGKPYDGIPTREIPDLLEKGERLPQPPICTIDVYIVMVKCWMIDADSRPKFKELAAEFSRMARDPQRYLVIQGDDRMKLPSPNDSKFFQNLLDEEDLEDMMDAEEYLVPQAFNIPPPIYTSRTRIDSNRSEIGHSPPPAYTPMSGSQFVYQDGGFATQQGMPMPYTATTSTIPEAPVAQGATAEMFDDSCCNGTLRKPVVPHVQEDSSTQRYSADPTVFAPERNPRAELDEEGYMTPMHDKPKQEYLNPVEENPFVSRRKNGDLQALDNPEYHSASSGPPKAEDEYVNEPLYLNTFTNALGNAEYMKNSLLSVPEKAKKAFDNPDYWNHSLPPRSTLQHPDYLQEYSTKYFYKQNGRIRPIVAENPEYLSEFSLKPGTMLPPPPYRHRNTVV
Experiment: cell-based or functional assay
ENDPOINT LABEL: Selectivity SC/CM
The answer should be a number; do not append a unit.

# annotated cases, reported Selectivity SC/CM shown
huNRG1(S177-Q237)(NRGE1N)::GG::huFcSEFL2 (Pb) (Fc fusion) SHLVKCGENDKSFCVNGGECYMVEGSSIPSRYLCKCPNEFTGDRCQDFFMASFYKAEELYQGGDKTHTCPPCPAPELLGGPSVFLFPPKPKDTLMISRTPEVTCVVVDVSHEDPEVKFNWYVDGVEVHNAKTKPCEEQYGSTYRCVSVLTVLHQDWLNGKEYKCKVSNKALPAPIEKTISKAKGQPREPQVYTLPPSREEMTKNQVSLTCLVKGFYPSDIAVEWESNGQPENNYKTTPPVLDSDGSFFLYSKLTVDKSRWQQGNVFSCSVMHEALHNHYTQKSLSLSPGK: 435
huNRG1(S177-Q237)(v80)::GG::huFcSEFL2 (Pb) (Fc fusion) SHLVKCAESHKSFCVNGGECFVIEGSSIPSRYLCKCPNEFTGDRCQKDVMASFYKAEELYQGGDKTHTCPPCPAPELLGGPSVFLFPPKPKDTLMISRTPEVTCVVVDVSHEDPEVKFNWYVDGVEVHNAKTKPCEEQYGSTYRCVSVLTVLHQDWLNGKEYKCKVSNKALPAPIEKTISKAKGQPREPQVYTLPPSREEMTKNQVSLTCLVKGFYPSDIAVEWESNGQPENNYKTTPPVLDSDGSFFLYSKLTVDKSRWQQGNVFSCSVMHEALHNHYTQKSLSLSPGK: 7
huNRG1(S177-Q237)(NRGE1J)::GG::huFcSEFL2 (Pb) (Fc fusion) SHLVKCGENDKSFCVNGGECYMVEGSSIPSRYLCKCPNEFTGDRCQDDFMASFYKAEELYQGGDKTHTCPPCPAPELLGGPSVFLFPPKPKDTLMISRTPEVTCVVVDVSHEDPEVKFNWYVDGVEVHNAKTKPCEEQYGSTYRCVSVLTVLHQDWLNGKEYKCKVSNKALPAPIEKTISKAKGQPREPQVYTLPPSREEMTKNQVSLTCLVKGFYPSDIAVEWESNGQPENNYKTTPPVLDSDGSFFLYSKLTVDKSRWQQGNVFSCSVMHEALHNHYTQKSLSLSPGK: 710

According to the records, this binder huNRG1(S177-Q237)(2H7)::GG::huFcSEFL2 (Pb) (Fc fusion) SHLVKCGEKEKSFCVNGGECYVVEDLSIPSRFLCKCPNEFTGDRCQKVVMASFYKAEELYQGGDKTHTCPPCPAPELLGGPSVFLFPPKPKDTLMISRTPEVTCVVVDVSHEDPEVKFNWYVDGVEVHNAKTKPCEEQYGSTYRCVSVLTVLHQDWLNGKEYKCKVSNKALPAPIEKTISKAKGQPREPQVYTLPPSREEMTKNQVSLTCLVKGFYPSDIAVEWESNGQPENNYKTTPPVLDSDGSFFLYSKLTVDKSRWQQGNVFSCSVMHEALHNHYTQKSLSLSPGK displays Selectivity SC/CM of 368
